MEASUREMENT TARGET: hA2a (Homo sapiens (Human))
Sequence (P29274 whole entry): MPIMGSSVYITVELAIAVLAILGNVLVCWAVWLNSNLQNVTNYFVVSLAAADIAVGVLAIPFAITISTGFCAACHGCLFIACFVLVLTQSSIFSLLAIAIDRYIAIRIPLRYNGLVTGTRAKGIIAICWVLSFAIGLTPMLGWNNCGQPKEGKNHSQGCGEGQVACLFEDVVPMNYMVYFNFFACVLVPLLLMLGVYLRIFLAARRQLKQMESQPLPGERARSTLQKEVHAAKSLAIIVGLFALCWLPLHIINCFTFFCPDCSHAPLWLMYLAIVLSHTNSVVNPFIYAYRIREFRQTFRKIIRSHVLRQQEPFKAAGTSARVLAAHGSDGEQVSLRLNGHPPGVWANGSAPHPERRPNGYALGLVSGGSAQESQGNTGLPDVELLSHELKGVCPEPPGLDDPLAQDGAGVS
ASSAY NAME: cAMP inhibition assay in hA2a/CHO cells
Assay type: cell-based
MEASUREMENT CONDITIONS: adenosine stimulation, read-out: cAMP & FLIPR IC50 (nM) hA2a
MEASURE: IC50 (nM)
Return type: number; implicit unit nM.

{"columns": ["COMPOUND", "UNIT", "IC50"],
 "data": [
  ["Cc1cc(-c2c(-c3ccc(F)cc3)nc(N)n3nc(C(C)c4c(F)cccc4F)nc23)ccn1 (stereo not shown)", "nM", 46]
]}

[in] Bench note: what IC50 did Cc1cnc2ccc(-c3c(N4CCOC[C@@H]4C)nc(N)n4nc(Cc5ncccc5F)nc34)cn12 (single isomer, unassigned; isomer 1) show?
[out] 42.4

[in] What does the record list as IC50 for Nc1nc(-c2ccc(F)cc2)c(-c2ccc3nc[nH]c3c2)c2nc(Cc3ncccc3F)nn12 ?
[out] 1.7
